Source listed as paper PMC10193013.

Target: Dbp2 1-514 (Saccharomyces cerevisiae, UniProt P24783 1-514)
Sequence (P24783 1-514): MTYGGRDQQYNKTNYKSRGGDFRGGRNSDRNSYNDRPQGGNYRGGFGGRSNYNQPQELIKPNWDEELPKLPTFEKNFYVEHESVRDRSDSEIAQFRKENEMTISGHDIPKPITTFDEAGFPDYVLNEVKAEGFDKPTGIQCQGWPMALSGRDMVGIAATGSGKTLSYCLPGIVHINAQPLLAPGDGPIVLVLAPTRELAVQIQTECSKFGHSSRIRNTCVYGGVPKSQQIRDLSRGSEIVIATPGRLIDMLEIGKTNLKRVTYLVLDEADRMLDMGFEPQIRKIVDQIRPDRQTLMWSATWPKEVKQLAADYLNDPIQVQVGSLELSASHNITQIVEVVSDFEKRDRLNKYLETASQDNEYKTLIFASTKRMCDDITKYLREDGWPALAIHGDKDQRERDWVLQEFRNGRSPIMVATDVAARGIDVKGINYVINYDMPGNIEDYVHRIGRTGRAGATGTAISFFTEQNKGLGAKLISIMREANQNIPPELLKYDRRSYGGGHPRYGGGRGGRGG
Assay: fluorescence anisotropy; Anisotropy: 25 mM Tris-HCl pH 7.5, 20 mM NaCl/30 mM KCl, 2 mM MgCl2, 1 mM DTT, 5 nM labelled nucleic acid, 25 C, 5 min; EMSA: 25 mM Tris-HCl pH 7.5, 30 mM KCl
Details: protein: recombinant; tags: His6-MBP removed by TEV; label: 3' FAM; G4
Reported Metric: pKd
Numbers only, as −log10 of the molar value.

get_value(item= GGGUUAGGGUUAGGGUUAGGG (structured_RNA) [R-G4Tel] , readout=pKd) returns 7.20
